test-target: T1, human MSLN-R3-his protein (human, UniProt Q13421 487-598)
T1 construct: Self-made in HEK293E cells; also called human MSLN-R3 protein; hMSLN-R3-his; not shown: His tag
T1 sequence (Q13421 495-606): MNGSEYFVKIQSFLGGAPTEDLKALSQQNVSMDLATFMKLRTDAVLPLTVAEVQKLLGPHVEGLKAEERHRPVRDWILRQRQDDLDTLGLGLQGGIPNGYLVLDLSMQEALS
experiment-notes: ELISA on coated antigen, antibody 100 nM
value-kind: OD450
// return the numeric value with its unit appended

May I ask what OD450 has been recorded for S009-F2.16.10 (antibody, human IgG1, kappa, V domains shown, Human-murine chimeric antibody: murine VH/VL on human IgG1 heavy and kappa light constant regions) VH: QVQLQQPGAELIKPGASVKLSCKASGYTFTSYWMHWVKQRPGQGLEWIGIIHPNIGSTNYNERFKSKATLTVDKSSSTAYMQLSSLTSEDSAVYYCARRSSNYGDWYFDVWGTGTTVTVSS VL: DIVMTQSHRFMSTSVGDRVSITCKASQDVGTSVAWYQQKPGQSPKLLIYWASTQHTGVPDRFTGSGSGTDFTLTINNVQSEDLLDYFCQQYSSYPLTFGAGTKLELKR ?
0.06 OD450

Also S009-F2.38.12 (antibody, human IgG1, kappa, V domains shown, Human-murine chimeric antibody: murine VH/VL on human IgG1 heavy and kappa light constant regions) VH: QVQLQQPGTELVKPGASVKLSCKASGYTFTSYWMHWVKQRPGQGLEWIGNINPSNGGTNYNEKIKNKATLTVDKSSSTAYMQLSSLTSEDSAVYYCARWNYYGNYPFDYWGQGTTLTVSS VL: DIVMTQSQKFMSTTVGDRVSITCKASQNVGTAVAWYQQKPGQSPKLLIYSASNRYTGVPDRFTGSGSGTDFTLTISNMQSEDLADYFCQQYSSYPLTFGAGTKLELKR ?
0.06 OD450
